assay.procedure: Light resistance evaluation of compound: ink image samples on paper, xenon tester
Type: physicochemical
experimental.parameters: ink image sample on paper; xenon tester 10 hours, 0.39 W/m^2 at 340 nm, 40° C., relative humidity 60%
measurement.kind: Light resistance ΔE, evaluation grade

CCCCC(CC)CN(CC(CC)CCCC)S(=O)(=O)c1ccc(/N=N/c2c(C)c(C#N)c(=O)n(N)c2O)cc1 (stereo not drawn) [Compound (23)] | A (A: ΔE<3.50)
CCCCC(CC)CN(CC(CC)CCCC)C(=O)c1ccc(/N=N/c2c(C)c(C#N)c(=O)n(N3CCCCC3)c2O)cc1 (stereo not drawn) [Compound (28)] | A (A: ΔE<3.50)
CCCCC(CC)CN(CC(CC)CCCC)C(=O)c1cccc(/N=N/c2c(C)c(C#N)c(=O)n(N)c2O)c1 (stereo not drawn) [Compound (4)] | A (A: ΔE<3.50)

====

assay.procedure: Evaluation of light resistance of thermal transfer recording sheets, xenon tester
Format: physicochemical
experimental.parameters: thermal transfer recording sheet containing the compound; xenon tester 50 hours, 0.39 W/m^2 at 340 nm, 40° C., relative humidity 60%
measurement.kind: Light resistance ΔE, evaluation grade

CCCCC(CC)CN(CC(CC)CCCC)C(=O)c1ccc(/N=N/c2c(C)c(C#N)c(=O)n(N3CCCCC3)c2O)cc1 (stereo not shown) | A (A: ΔE<3.50)
CCCCC(CC)CN(CC(CC)CCCC)S(=O)(=O)c1ccc(/N=N/c2c(C)c(C#N)c(=O)n(N)c2O)cc1 (stereo not shown) | A (A: ΔE<3.50)

====

assay.procedure: Light resistance evaluation of compound: ink image samples on paper, xenon tester
Type: physicochemical
Design: key: ΔE = Euclidean distance of L*a*b* before vs after exposure
experimental.parameters: ink image sample on paper; xenon tester 10 hours, 0.39 W/m^2 at 340 nm, 40° C., relative humidity 60%
measurement.kind: Light resistance ΔE (color difference)

(I) CCCCC(CC)CN(CC(CC)CCCC)S(=O)(=O)c1ccc(/N=N/c2c(C)c(C#N)c(=O)n(N(C)C(=O)C(C)(C)C)c2O)cc1 (stereo not shown) [Compound (29)]
(II) CCCCC(CC)CN(CC(CC)CCCC)C(=O)c1ccc(/N=N/c2c(C)c(C#N)c(=O)n(N(CCCC)CCCC)c2O)cc1 (stereo not shown) [Compound (30)]
Request: Select the item with the higher value of Light resistance ΔE (color difference) from the options I and II listed. Give the label of your selection.
Response: I

(a) CCCCC(CC)CN(CC(CC)CCCC)C(=O)c1ccccc1/N=N/c1c(C)c(C#N)c(=O)n(N)c1O (stereo not shown) [Compound (1)]
(b) Cc1c(/N=N/c2ccccc2)c(O)n(N)c(=O)c1C#N [Comparative Compound (1), reference compound]
Request: Could you tell me which of these two has the smaller Light resistance ΔE (color difference) figure? First: a Second: b Give the label of your selection.
Response: a
(a: 3.64, b: 10.6)

(I) CCCCC(CC)CN(CC(CC)CCCC)C(=O)c1ccc(/N=N/c2c(-c3ccccc3)c(C#N)c(=O)n(NC(=O)c3ccccc3)c2O)cc1 (stereo not shown) [Compound (8)]
(II) CCCCC(CC)CN(CC(CC)CCCC)C(=O)c1ccc(/N=N/c2c(C)c(C#N)c(=O)n(N3CCCCC3)c2O)cc1 (stereo not shown) [Compound (28)]
Request: Select the item with the higher value of Light resistance ΔE (color difference) from the options I and II listed. Give the label of your selection.
Response: I
(I: 2.81, II: 1.64)
